# System: Caki-1
# procedure.summary: Renal cancer cell growth IC50 (crystal violet)
# Assay type: cell-based, human
# condition.info: Example 22; Caki-1; read-out: IC50
test.readout: IC50 (nM)
Reply with just the number (in nM).

QUERY: Request: IC50, test system Caki-1, entry CC1CCC2C(C)C(OC(=O)CCCCCN3C(=CC=C4CCCC(C=CC5=[N+](CCCCS(=O)(=O)[O-])c6ccccc6C5(C)C)=C4Cl)C(C)(C)c4ccccc43)OC3OC4(C)CCC1C32OO4 (stereo not shown)
RESULT: 703
